System: MDA-MB-468 breast
ASSAY_PROCEDURE: NCI-60 one-dose screen, 48 h
CONDITION_NOTES: 10 µM unless noted
Compounds without any hit were thinned out: in the full panel of roughly 83,000, 20% have a hit. Activity calls are given as the source filed them. The calls were made as follows: active = growth percent below 10; inactive = the rest.
Your response should consist of one outcome taken from yes for active, no for inactive

COc1ccc(C(=O)c2cc(OC)c3c(c2)OCO3)cc1O
yes
Cc1cc(F)cc(NS(=O)(=O)c2ccc(-c3cnc(C4CC4)o3)cc2)c1
yes
CC1(C)N=C(N)N=C(N)N1c1cccc(CCCCc2ccccc2)c1
yes

Q: Hello, I am checking results. What call was entered for COc1ccc(C(=O)c2ccccc2CN2C(=O)c3ccccc3C2=O)cc1 ?
Result: no

Q: Hello, I am checking results. What call was entered for COc1cccc(-c2nn(-c3ccccc3)cc2-c2ccnc(NCCCNS(=O)(=O)c3ccc(Br)cc3)c2)c1 ?
Result: no

Q: Hello, I am checking results. What call was entered for CCOC(CNCc1cc(C)c2[nH]c3ccccc3c2c1C)OCC ?
Result: no

Q: Hello, I am checking results. What call was entered for CC(CCC(=O)O)[C@H]1CCC2C3C(=O)C[C@@H]4CC(=O)CC[C@]4(C)C3CC(=O)[C@@]21C (some centres not stated) ?
Result: no
